Origin of measurements: the supplement of paper PMC10724198

test system: Saccharomyces cerevisiae; experiment: protein stability index of tFT-peptide fusion (C-terminal peptide) (PSI (0-1 scale)); higher = more stable (slower turnover); conditions: genetic background: wild type; temperature: 30 C;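 further: PSI is a weighted mean of sequencing reads over stability bins, variants kept only with over 10 reads, mCherry proximal and sfGFP distal, peptide attached via GGGS linker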
Use met when the recorded protein stability index is no lower than 0.7; use not met when it is lower.

>>> print(df.to_string())
    input_sequence  answer_label
 0    FLTPPIPLFSRL           met
 1    RVGQDGFRVAGC       not met
 2    LWGGAGAGYWVG           met
 3    HNLIRKHAKESS       not met
 4    RIAARAIISRGG       not met
 5    SPPPFPHPHQLP           met
 6    PPPSPAQIPRPS           met
 7    KKRKKDKRSQER       not met
 8    NIIADTHARRRF           met
 9    PVLGRFGSTFVV       not met
10    VFVGWVLCVVGG       not met
11    ILSWSGLSTGLE           met
12    PPPLLVRPWFLV       not met
13    WSPGGGPLGLYE           met
14    GLNTKAQSRIPM           met
15    PYWVPSKSSLSP           met
16    LVFGFSLILRVG       not met
17    IKKTKNKETKKT       not met
18    MWAEWLCHGDRN           met
19    RVANCGDGSIAV       not met
20    YSVNSLFCKVFG       not met
21    LHRLRFTLVQVS       not met
22    FCEASSSSRISA           met
23    GNGIRLIPPAYS           met
24    FDRQQDLTGMEM           met
25    SMGGDTFILFAV       not met
26    PPSPPAPSPTPP           met
27    SILLPLPRLLPC       not met
28    VVYGVSHEETST       not met

* * *

test system: Saccharomyces cerevisiae; test: protein stability index of tFT-peptide fusion (C-terminal peptide) (PSI (0-1 scale)); higher = more stable (slower turnover); details: genetic background: wild type; temperature: 30 C
property label: protein stability index

   input_sequence  measured_number
0    IFLLLHSPSSAS            0.697
1    FLTPPSLSLPPP             0.68
2    LSFLYCSDNKVA            0.656
3    ASNEPQRQELGS            0.693
4    VWGVFASPVVYR            0.712
5    FPPLFPLSTFLL             0.56
6    RRRGIYARASVV            0.382
7    AYPRLRPSPSPH            0.721
8    GAPPPAFPISSP            0.648
9    FFLFLVCLFFFS             0.37

* * *

system: Saccharomyces cerevisiae; test: protein stability index of tFT-peptide fusion (C-terminal peptide) (PSI (0-1 scale)); higher = more stable (slower turnover); settings: genetic background: wild type; temperature: 37 C
property label: protein stability index

    input_sequence           property_label  measured_number
 0    FLSLPLFILFLS  protein stability index            0.119
 1    LRFSLLRVGWLC  protein stability index            0.561
 2    ASFVCWSVCALG  protein stability index             0.51
 3    GGVWSAFAVWVC  protein stability index           0.0546
 4    VFHMFGWCGGAR  protein stability index            0.752
 5    VFLFSLCIRLSR  protein stability index            0.248
 6    DVHPLFYCIPVY  protein stability index           0.0474
 7    NDKGKKTKIKIV  protein stability index            0.343
 8    VFFLFAVCSVLV  protein stability index            0.248
 9    PVPERTSATEPP  protein stability index            0.655
10    ARCKRSLSGGIG  protein stability index             0.54
11    VFLVRTVTQISA  protein stability index            0.397
12    RCSLRLRFIFVR  protein stability index            0.116
13    PPPPLFLIVLHL  protein stability index            0.593
14    YQHSRSGRNKII  protein stability index            0.122
15    RKFRAWIRITRT  protein stability index            0.471
16    LLHFVLYFLSCT  protein stability index            0.549
17    WVVWVLVGGFGG  protein stability index            0.449
18    WRVVVSCALHVC  protein stability index           0.0863
19    CFCPILFPRCLA  protein stability index             0.19
20    LYTFCSMDANPM  protein stability index            0.407
21    VFRLFFLLVWLV  protein stability index             0.13
22    VVIWWFSAVVSV  protein stability index            0.165
23    FSVLVVYTRLFQ  protein stability index            0.508
24    ASSFYVDLVLVS  protein stability index            0.484
25    GMNGLFFIAMLG  protein stability index            0.398
26    CFRRPLLRVVLT  protein stability index            0.569
27    RCQILSYCLLFV  protein stability index            0.452
28    YHGVYLARVLQA  protein stability index            0.501
29    LLRFFPCFLGVN  protein stability index            0.579
30    VAIMSIWLVYML  protein stability index            0.492
31    LVCSRFLFAFHC  protein stability index            0.104
32    FFILVFFSLLST  protein stability index            0.406
33    VWFGGLAVCCGG  protein stability index            0.432
34    PFGPTFSPRPFR  protein stability index            0.747
35    TLCFRLSWVLLV  protein stability index           0.0672
36    FFLLSVVLKYSV  protein stability index             0.14
37    VFLVFSVWVVYR  protein stability index            0.343
38    LIVFSGFLFLLS  protein stability index             0.51
39    GTRAGNPDRQRS  protein stability index            0.706
40    AYACSILRCKSS  protein stability index            0.422
41    FEVLINIWFLSA  protein stability index            0.324
42    LSFFICSFFFVL  protein stability index            0.511
43    SLVLLLLITFSL  protein stability index            0.495
44    CLFRVCLFILSI  protein stability index            0.467
45    LRGIVSVWILRA  protein stability index            0.282
46    LFWTLSKYLIIC  protein stability index            0.159
47    GCYWPKTLGILC  protein stability index             0.56
48    PRINTFVVVRVC  protein stability index           0.0609
49    PPPPHSAPLFLS  protein stability index            0.458
50    WVVVGWVGVGFR  protein stability index            0.554
51    QRTNTIINKRIV  protein stability index            0.705
52    GLFVGCWVFLVL  protein stability index            0.486
53    SWRRCLSSIPVA  protein stability index            0.438
54    WCAMITVFCGSG  protein stability index             0.38
55    GTEFSNVITYLV  protein stability index             0.61
56    ARALLGVGWYWV  protein stability index            0.537
57    FTRWLVYCTPLC  protein stability index            0.567
58    CGLLWFYSFFLF  protein stability index            0.465
59    VVVVWVVVEIVR  protein stability index            0.178
60    LSGDIPWSFVPV  protein stability index            0.758
61    SLRSLYLLARLS  protein stability index           0.0971
62    FFRFNCVFWLFL  protein stability index            0.428
63    LFVFVISSSSFP  protein stability index            0.503
64    YFFFYFFLLFHL  protein stability index            0.429
65    FVSVAGFIVVVV  protein stability index            0.498
66    FGVLLLFLFFLP  protein stability index            0.427
67    FYFRSSFFTICF  protein stability index            0.446
68    VCLFWLFLWRIL  protein stability index            0.241
69    LGFFIFSFLILK  protein stability index            0.221
70    IGSARIKLLCYH  protein stability index            0.331
71    CFVPFFLPLCAF  protein stability index           0.0588
72    FCIIVFYIFVGI  protein stability index            0.486
73    WCCVFVARFFWL  protein stability index             0.44
74    LFTRSIRNLKSL  protein stability index            0.452
75    FFALYGHILGLF  protein stability index            0.685
76    SFTVFVVLLFPP  protein stability index            0.429
77    LIAPSACNLFLF  protein stability index            0.557
78    RFWFTFYLIAVF  protein stability index            0.163
79    APGGRGAAGPSC  protein stability index            0.704
80    YLFPHVRPKFPG  protein stability index            0.721
81    VLICFSVFSWVV  protein stability index           0.0371
